Kindly state log10(IC50) for each of the entries shown.
Target: cAMP and cAMP-inhibited cGMP 3',5'-cyclic phosphodiesterase 10A (Homo sapiens, UniProt Q9Y233)
Reminder: these figures are log10 of reported IC50, in nM before transformation.

The examples below pair each entry with its known result.
INSERT INTO assay_data (compound, resultvalue) VALUES
  ('CN(C)c1nc(OCc2nc3ccccc3n2C)nc2ccc(Cl)cc12 [Roche-Dataset for PDE10A, Compound 470]', 2.08),
  ('O=C(c1nc(C2CC2)cnc1Nc1cncnc1)N1CCN(C2CCCC2)CC1 [Roche-Dataset for PDE10A, Compound 1039]', 4.00),
  ('Cc1ncc(C)n2nc(CCc3nc(N4CCN(C(c5ccccc5)c5ccccc5)C4=O)nn3C)nc12 [Roche-Dataset for PDE10A, Compound 1145]', 3.68),
  ('Clc1ccc2nc(CCc3nc4ccc(Cl)cn4n3)nn2c1 [Roche-Dataset for PDE10A, Compound 780]', 1.89),
  ('O=C(Nc1ccn2nc(-c3ccccc3)nc2c1)c1ccc(Cl)nn1 [Roche-Dataset for PDE10A, Compound 897]', 4.00);

Batch request: log10(IC50) per item, same order as input.
1. Cn1ncc(C(=O)N2CCC2)c1C(=O)Nc1ccc2sc(N3CCOCC3)nc2c1 [Roche-Dataset for PDE10A, Compound 397]
2. Cn1ncc(C(=O)N2CCC2)c1C(=O)Nc1n[nH]cc1C#N [Roche-Dataset for PDE10A, Compound 1112]
3. CC(C)Oc1cccc(NC(=O)c2nc(C3CC3)cnc2Nc2cncnc2)c1 [Roche-Dataset for PDE10A, Compound 721]
4. O=C1c2ccccc2C(=O)N1CCc1nc(-c2ccccc2)cs1 [Roche-Dataset for PDE10A, Compound 150]
5. Cc1cc(NC(=O)c2c(C(=O)N3CCC3)cnn2C)nn1CC(F)F [Roche-Dataset for PDE10A, Compound 1050]

1. 0.27
2. 2.51
3. 0.98
4. 2.53
5. 2.13

Reference for the values: BindingDB's records for doi:10.1007/s10822-022-00478-x
